Measured pKd values are reported for all entries that follow.
# testedSystem: LNX1_1, Q8TBB1
# Sequence (Q8TBB1 261-371): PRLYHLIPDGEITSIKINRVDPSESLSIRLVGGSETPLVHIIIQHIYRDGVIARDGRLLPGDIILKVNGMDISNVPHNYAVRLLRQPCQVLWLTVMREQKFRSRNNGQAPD
# assayText: holdup assay
# Design: key: below the threshold = too weak to quantify, mostly under pKd 3.1 to 4
# conditionParameters: plain residues with an end cap or a label only (N-terminal biotin on a linker: ado-ado)
Please respond with just the number, no unit label.

# pKd lookup, item GQNMTVSVVI [PRLHR, P49683] 3.47

Now try IGHEDLETAV [DGKI, O75912] . 3.58

Same lookup for DSEEELPTRL [GRK6, P43250] , please. 3.82
